Each entry below carries its reported %Inh.
tested on: TRKC; construct: gene NTRK3; settings: concentration: 1 μM,replicates: in singlicate; n = 1;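 also: KINOMEscan kinase panel screen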
State the value with its unit after it.

See these solved cases before continuing.
> print(dat)
                                    molecule  measured.result
 1  Cc1occc1-c1nc(N)c(OC[C@@H](N)Cc2c[nH]c3ccccc23)cc1-c1cc2c(C)n[nH]c2cn1 [GSK1660450]               0%
 2  Cl.Cl.Nc1nc(-c2ccc3c(N)n[nH]c3c2)cc(N2CCCC(NC(=O)c3ccccc3)C2)n1 (centres unmarked) [GSK2286775]               0%
 3  O=C(NCCNc1ccnc(NCc2ccc(F)cc2)n1)c1cc2ccccc2s1 [GSK1379944]              22%
 4  Cc1ccc2c(-c3ccncc3)c(-c3ccc(F)cc3)nn2c1.Cl [GW461484]               2%
 5  Cc1cc2cn[nH]c2cc1-c1cccc2c(N)c(C(N)=O)nnc12              54%
 6  COc1ccc(C[C@@H](CN)NC(=O)c2cc(Br)c(-c3ccnc4[nH]ccc34)s2)cc1.Cl.Cl [GSK1389063]            90.3%
 7  Nc1nc(Nc2ccccc2)cc(-c2ccc3c(N)n[nH]c3c2)n1 [GSK2225749]               0%
 8  Cc1n[nH]c2ccc(-c3cc(OC[C@@H](N)Cc4ccccc4)cnc3-c3ccoc3)cc12.O=C(O)C(F)(F)F.O=C(O)C(F)(F)F [GSK507358]              15%
 9  CCN(CC)CCCCNc1ncc2cc(-c3c(Cl)cccc3Cl)c(NC(=O)NC(C)(C)C)nc2n1              45%
10  CN(C)CC(O)COc1ccc(Nc2nccc(-c3cnn4nc(N5CCOCC5)ccc34)n2)cc1 (centres unmarked) [GW767488]              45%

Problem: // %Inh lookup, key: Cl.Oc1cc(-c2nc(-c3ccccc3)[nH]c2-c2ccncc2)ccc1Cl [SB-386023]
Solution: 12%

Problem: // %Inh lookup, key: CNC(=O)c1ccccc1Sc1ccc2c(/C=C/c3ccccn3)n[nH]c2c1
Solution: 0%

Problem: // %Inh lookup, key: C[C@H]1Oc2cc(cnc2N)-c2c(nn(C)c2C#N)CN(C)C(=O)c2ccc(F)cc21
Solution: 78%

====

tested on: MAP3K2; settings: concentration: 1 μM,replicates: in singlicate; n = 1
Each entry below carries its reported %Inh.
Your answer is read as %, so omit the unit and give the number.

See these solved cases before continuing.
> print(dat)
                                   molecule  measured.result
1  C[C@H]1Oc2cc(cnc2N)-c2c(nn(C)c2C#N)CN(C)C(=O)c2ccc(F)cc21                8
2  Cl.Oc1cc(-c2nc(-c3ccccc3)[nH]c2-c2ccncc2)ccc1Cl [SB-386023]               29

Problem: API: value(readout= %Inh, system= MAP3K2, query= O=C(NCCCN1CCOC1=O)c1cnc(NCc2cc(Cl)ccc2Cl)nc1NC1CCCC1 )
Solution: 63

Problem: API: value(readout= %Inh, system= MAP3K2, query= Cc1cc2cn[nH]c2cc1-c1cccc2c(N)c(C(N)=O)nnc12 )
Solution: 72

Problem: API: value(readout= %Inh, system= MAP3K2, query= Cl.Cl.NC[C@H](Cc1ccc(C(F)(F)F)cc1)NC(=O)c1cc(Br)c(-c2ccnc3[nH]ccc23)s1 [GSK1487252] )
Solution: 15

Problem: API: value(readout= %Inh, system= MAP3K2, query= Cc1ccc(-n2nc(C(C)(C)C)cc2NC(=O)Nc2ccc(OCCN3CCOCC3)c3ccccc23)cc1 [GW839464] )
Solution: 1

Problem: API: value(readout= %Inh, system= MAP3K2, query= O=C(NCCNc1ccnc(NCc2ccc(F)cc2)n1)c1cc2ccccc2s1 [GSK1379944] )
Solution: 0

Problem: API: value(readout= %Inh, system= MAP3K2, query= CCN(CC)CCCCNc1ncc2cc(-c3c(Cl)cccc3Cl)c(NC(=O)NC(C)(C)C)nc2n1 )
Solution: 88
